System: primary human T-cells
Assay: Proliferation assay after 5 days (CellTiter-Glo, CD3 stimulation; PBS counter screen)
Format: cell-based
Settings: Homo sapiens, T-cell, 120 h, CD3 stimulation, 5 days; normalized to reference compound A1 as stimulator control = 100%, DMSO neutral control; read-out: Emax proliferation (% activation)
Protocol: Compounds are then added (see next section) to medium only plates. Cells are assessed for proliferation 5 days later by measuring […] using CellTiterGlo (Promega). After 5 days, for detection of ATP which is directly proportional to the number of cells present per well, the CellTiter-Glo® 2.0 Reagent is used. […] Luminescence is measured with PHERAstar FSX (interval time 0.5 sec, gain 3000, focal height 15 mm) and exported as CSV file for analysis in Genedata screener. […]
experimental.endpoint: Emax (%)
Express your answer in %, writing the number without its unit.

# count of solved cases: 2
CN1CC[C@H](n2nnc(-c3cc4c(cc3F)S(=O)(=O)C[C@H](N)C(=O)N4Cc3ccc(Cl)cc3)n2)C1	63
CC(C)(CN1CCC(F)(F)CC1)c1nnc(-c2cc3c(cc2F)S(=O)(=O)C[C@H](N)C(=O)N3Cc2ccc(Cl)cc2)o1	66

GET /values?readout=Emax&item= COc1ccc(CN2C(=O)[C@@H](N)CS(=O)(=O)c3cc(F)c(-c4nnc(C(C)(C)C)o4)cc32)cn1 109

GET /values?readout=Emax&item= CN(CCO)CC(C)(C)c1nnc(-c2cc3c(cc2F)S(=O)(=O)C[C@H](N)C(=O)N3Cc2ccc(Cl)cc2)o1 102

GET /values?readout=Emax&item= CC(C)(C)c1nnc(-c2cc3c(cc2F)S(=O)(=O)C[C@H](N)C(=O)N3Cc2ccc(S(C)(=O)=O)c(F)c2)o1 92

GET /values?readout=Emax&item= CS(=O)(=O)N1CC(n2nnc(-c3cc4c(cc3F)S(=O)(=O)C[C@H](N)C(=O)N4Cc3ccc(Cl)cc3)n2)CC(F)(F)C1 (some centres unmarked) 161

GET /values?readout=Emax&item= N[C@H]1CS(=O)(=O)c2cc(F)c(-c3nnc(NC4CCC4)o3)cc2N(Cc2ccc(Cl)cc2)C1=O 91

GET /values?readout=Emax&item= CCC(=O)N[C@H]1CS(=O)(=O)c2cc(F)c(-c3nnc(C(C)(C)C)o3)cc2N(Cc2ccc(Cl)cc2)C1=O 159

GET /values?readout=Emax&item= CC(F)(F)CNC(=O)c1nc(-c2cc3c(cc2F)S(=O)(=O)C[C@H](N)C(=O)N3Cc2ccc(Cl)cc2)no1 97

###

system: primary human T-cells; assay: Proliferation assay after 5 days (CellTiter-Glo, CD3 stimulation; PBS counter screen); type: cell-based; details: Homo sapiens, T-cell, 120 h, primary human T-cells, CD3 stimulation, CellTiter-Glo after 5 days; EC50 of fitted sigmoidal curve; read-out: Tcell Proliferation CD3 EC50
Listed here are compounds together with their documented pEC50.
Scale: negative log10 of molar concentration, which is what pEC50 denotes.

# count of solved cases: 5
CC(=O)NCCCCCCCCCCCOc1ccc(CN2C(=O)[C@@H](N)CS(=O)(=O)c3cc(F)c(-c4nnc(C(C)(C)C)o4)cc32)cc1	7.33
Cc1cc2c(cc1-c1nnc(C(C)C#N)o1)N(Cc1ccc(Cl)cc1)C(=O)[C@@H](N)CS2(=O)=O (stereo partly drawn)	5.09
CC1(c2nc(-c3cc4c(cc3F)S(=O)(=O)C[C@H](N)C(=O)N4Cc3ccc(Cl)cc3)no2)CCN(C(=O)N2CCCC2)CC1	6.14
CC(C)Nc1nnc(-c2cc3c(cc2F)S(=O)(=O)C[C@H](N)C(=O)N3Cc2ccc(Cl)cc2)o1	5.98
CCn1cc(-c2cc3c(cc2F)S(=O)(=O)C[C@H](N)C(=O)N3Cc2ccc(Cl)cc2)cn1	5.27

GET /values?readout=pEC50&item= CC(C)(C)c1nnc(-c2cc3c(cc2F)S(=O)(=O)C[C@H](NC(=O)CCN)C(=O)N3Cc2ccc(Cl)cc2)o1 5.57

GET /values?readout=pEC50&item= CC(CO)(CCl)c1nnc(-c2cc3c(cc2F)S(=O)(=O)C[C@H](N)C(=O)N3Cc2ccc(Cl)cc2)o1 (stereo partly drawn) 6.31

GET /values?readout=pEC50&item= CC(C)(c1nnc(-c2cc3c(cc2F)S(=O)(=O)C[C@H](N)C(=O)N3Cc2ccc(Cl)cc2)o1)C(N)C(F)(F)F (stereo partly drawn) 6.94

Origin of the recorded values: patent US20240368150A1
